B1: ADD1 (parent)
chain: GEGTGSPPKWQIGEQEFEALMRML

Variants of: B1
measurement.protocol: protein stability index of a GFP-peptide fusion (GPS, HEK-293T) (PSI 1-6); higher = more stable;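 note: lentivirally expressed fusions sorted by FACS into six bins by GFP to DsRed ratio, PSI derived from sequencing read proportions per bin multiplied by bin number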
test.context: c terminus: a fixed tail appended
Each entry below lists one item and its recorded protein stability index value.
readout.kind: protein stability index

[[record]]
variant_description = "F17G"
meas_value = 4.19

[[record]]
variant_description = "T4D"
meas_value = 2.96

[[record]]
variant_description = "L20M"
meas_value = 3.64

[[record]]
variant_description = "G1D"
meas_value = 3.66

[[record]]
variant_description = "P7K"
meas_value = 3.23

[[record]]
variant_description = "E14L"
meas_value = 2.3

[[record]]
variant_description = "E2C"
meas_value = 3.14

[[record]]
variant_description = "M23F"
meas_value = 2.52

[[record]]
variant_description = "M21V"
meas_value = 3.11

[[record]]
variant_description = "E18H"
meas_value = 2.1

[[record]]
variant_description = "P7Y"
meas_value = 2.14

[[record]]
variant_description = "Q15W"
meas_value = 1.86

[[record]]
variant_description = "F17P"
meas_value = 4.79

[[record]]
variant_description = "L24P"
meas_value = 4.38

[[record]]
variant_description = "S6Q"
meas_value = 2.85

[[record]]
variant_description = "E18P"
meas_value = 3.39

[[record]]
variant_description = "G1R"
meas_value = 3.26

[[record]]
variant_description = "T4A"
meas_value = 3.63

[[record]]
variant_description = "Q11P"
meas_value = 3.33

[[record]]
variant_description = "P8I"
meas_value = 2.31

[[record]]
variant_description = "P7S"
meas_value = 2.45

[[record]]
variant_description = "G1S"
meas_value = 2.99

[[record]]
variant_description = "P8M"
meas_value = 2.63

[[record]]
variant_description = "T4K"
meas_value = 2.13

[[record]]
variant_description = "E16C"
meas_value = 2.75

[[record]]
variant_description = "E16T"
meas_value = 2.4

[[record]]
variant_description = "G13E"
meas_value = 4.05

[[record]]
variant_description = "G13A"
meas_value = 3.85

[[record]]
variant_description = "K9E"
meas_value = 3.82

[[record]]
variant_description = "K9Y"
meas_value = 3.43

[[record]]
variant_description = "E14V"
meas_value = 2.29

[[record]]
variant_description = "G3A"
meas_value = 3.42

[[record]]
variant_description = "Q11W"
meas_value = 3.04

[[record]]
variant_description = "G1M"
meas_value = 2.71

[[record]]
variant_description = "F17N"
meas_value = 3.55

[[record]]
variant_description = "E16K"
meas_value = 2.53

[[record]]
variant_description = "L24I"
meas_value = 3.52

[[record]]
variant_description = "M23H"
meas_value = 3.1

[[record]]
variant_description = "E2G"
meas_value = 3.06

[[record]]
variant_description = "S6Y"
meas_value = 2.59

[[record]]
variant_description = "K9T"
meas_value = 2.95

[[record]]
variant_description = "L24E"
meas_value = 4.98

[[record]]
variant_description = "Q11C"
meas_value = 2.76

[[record]]
variant_description = "A19L"
meas_value = 2.85

[[record]]
variant_description = "E18A"
meas_value = 2.76

[[record]]
variant_description = "E16W"
meas_value = 2.54

[[record]]
variant_description = "L24Q"
meas_value = 4.74

[[record]]
variant_description = "M23C"
meas_value = 3.74

[[record]]
variant_description = "E16P"
meas_value = 2.61

[[record]]
variant_description = "E2F"
meas_value = 2.73

[[record]]
variant_description = "G13M"
meas_value = 2.94

[[record]]
variant_description = "I12M"
meas_value = 3.38

[[record]]
variant_description = "E14M"
meas_value = 2.72

[[record]]
variant_description = "G13K"
meas_value = 3.21

[[record]]
variant_description = "L24A"
meas_value = 3.83

[[record]]
variant_description = "M21E"
meas_value = 4.16

[[record]]
variant_description = "E2R"
meas_value = 3.16

[[record]]
variant_description = "Q15Y"
meas_value = 2.25

[[record]]
variant_description = "T4H"
meas_value = 3.19

[[record]]
variant_description = "P8K"
meas_value = 2.52

[[record]]
variant_description = "E2N"
meas_value = 2.77

[[record]]
variant_description = "G5T"
meas_value = 3

[[record]]
variant_description = "K9V"
meas_value = 2.49

[[record]]
variant_description = "E18D"
meas_value = 3.69

[[record]]
variant_description = "L24S"
meas_value = 3.92

[[record]]
variant_description = "L20R"
meas_value = 4.19

[[record]]
variant_description = "R22E"
meas_value = 3.39

[[record]]
variant_description = "E18K"
meas_value = 2.9

[[record]]
variant_description = "G3R"
meas_value = 3.14

[[record]]
variant_description = "R22V"
meas_value = 2.14

[[record]]
variant_description = "G1L"
meas_value = 3.32

[[record]]
variant_description = "L20H"
meas_value = 4.97

[[record]]
variant_description = "E18Q"
meas_value = 3.22

[[record]]
variant_description = "M21W"
meas_value = 2.83

[[record]]
variant_description = "T4G"
meas_value = 3.14

[[record]]
variant_description = "L20S"
meas_value = 5.12

[[record]]
variant_description = "M21G"
meas_value = 3.87

[[record]]
variant_description = "M23D"
meas_value = 5.08

[[record]]
variant_description = "A19P"
meas_value = 3.25

[[record]]
variant_description = "M21Q"
meas_value = 3.83

[[record]]
variant_description = "E18F"
meas_value = 1.93

[[record]]
variant_description = "A19V"
meas_value = 2.97

[[record]]
variant_description = "M23G"
meas_value = 4.56

[[record]]
variant_description = "E2I"
meas_value = 4.01

[[record]]
variant_description = "F17H"
meas_value = 4.32

[[record]]
variant_description = "T4Q"
meas_value = 3.08

[[record]]
variant_description = "L24V"
meas_value = 3.06

[[record]]
variant_description = "S6W"
meas_value = 2.19

[[record]]
variant_description = "A19F"
meas_value = 2.67

[[record]]
variant_description = "W10L"
meas_value = 3.06

[[record]]
variant_description = "Q11F"
meas_value = 3.22

